Measured total protein half-life in vivo, listed per entry for reference.
assay: total protein half-life in vivo (active degradation + dilution); higher = more stable protein; conditions: E. coli NCM3722 delta-smpB; growth: N-lim chemostat; doubling time 6 h

{"columns": ["record sequence", "quantity unit", "total protein half-life in vivo"],
 "data": [
  ["MTQPLFLIGPRGCGKTTVGMALADSLNRRFVDTDQWLQSQLNMTVAEIVEREEWAGFRARETAALEAVTAPSTVIATGGGIILTEFNRHFMQNNGIVVYLCAPVSVLVNRLQAAPEEDLRPTLTGKPLSEEVQEVLEERDALYREVAHIIIDATNEPSQVISEIRSALAQTINC [P0A6E1]", "h", 2.42],
  ["MTIKLIVGLANPGAEYAATRHNAGAWFVDLLAERLRAPLREEAKFFGYTSRVTLGGEDVRLLVPTTFMNLSGKAVAAMASFFRINPDEILVAHDELDLPPGVAKFKLGGGHGGHNGLKDIISKLGNNPNFHRLRIGIGHPGDKNKVVGFVLGKPPVSEQKLIDEAIDEAARCTEMWFTDGLTKATNRLHAFKAQ [P0A7D1]", "h", 4.54],
  ["MDYVCSVVFICQSFDLIINRRVISFKKNSLFIVSDKIRRELPVCPSKLRIVDIDKKTCLSFFIDVNNELPGKFTLDKNGYIAEEEPPLSLVFSLFEGIKIADSHSLWLKERLCISLLAMFKKRESVNSFILTNINTFTCKITGIISFNIERQWHLKDIAELIYTSESLIKKRLRDEGTSFTEILRDTRMRYAKKLITSNSYSINVVAQKCGYNSTSYFICAFKDYYGVTPSHYFEKIIGVTDGINKTID", "h", 3.18]
]}

----------
Quick reference: total protein half-life in vivo of the listed items.
assay: total protein half-life in vivo (active degradation + dilution); higher = more stable protein; conditions: wild type E. coli NCM3722; growth: C-lim chemostat; doubling time 6 h

{"columns": ["record sequence", "total protein half-life in vivo (h)"],
 "data": [
  ["MALPILLDCDPGHDDAIAIVLALASPELDVKAITSSAGNQTPEKTLRNVLRMLTLLNRTDIPVAGGAVKPLMRELIIADNVHGESGLDGPALPEPTFAPQNCTAVELMAKTLRESAEPVTIVSTGPQTNVALLLNSHPELHSKIARIVIMGGAMGLGNWTPAAEFNIYVDPEAAEIVFQSGIPVVMAGLDVTHKAQIHVEDTERFRAIGNPVSTIVAELLDFFLEYHKDEKWGFVGAPLHDPCTIAWLLKPELFTSVERWVGVETQGKYTQGMTVVDYYYLTGNKPNATVMVDVDRQGFVDLLADRLKFYA", 5.85],
  ["MSNTDASGEKRVTGTSERREQIIQRLRQQGSVQVNDLSALYGVSTVTIRNDLAFLEKQGIAVRAYGGALICDSTTPSVEPSVEDKSALNTAMKRSVAKAAVELIQPGHRVILDSGTTTFEIARLMRKHTDVIAMTNGMNVANALLEAEGVELLMTGGHLRRQSQSFYGDQAEQSLQNYHFDMLFLGVDAIDLERGVSTHNEDEARLNRRMCEVAERIIVVTDSSKFNRSSLHKIIDTQRIDMIIVDEGIPADSLEGLRKAGVEVILVGE [P0ACK2]", 5.31],
  ["MKGGKRVQTARPNRINGEIRAQEVRLTGLEGEQLGIVSLREALEKAEEAGVDLVEISPNAEPPVCRIMDYGKFLYEKSKSSKEQKKKQKVIQVKEIKFRPGTDEGDYQVKLRSLIRFLEEGDKAKITLRFRGREMAHQQIGMEVLNRVKDDLQELAVVESFPTKIEGRQMIMVLAPKKKQ [P0A707]", 5.56]
]}

----------
assay: total protein half-life in vivo (active degradation + dilution); higher = more stable protein; conditions: wild type E. coli NCM3722; growth: P-lim chemostat; doubling time 12 h
Rule: total protein half-life in vivo of 5 h or more gives yes (1); anything lower gives no (0).

{"columns": ["record sequence", "group"],
 "data": [
  ["MTVQDYLLKFRKISSLESLEKLYDHLNYTLTDDQELINMYRAADHRRAELVSGGRLFDLGQVPKSVWHYVQ", "yes (1)"],
  ["MTIYFINWVADYELKMIQYLKKKYKIKNITTPKKYNWINKKISKIGMDNAWLGRLFIKHYLNDIKKDDIIIINDSVVNKGINKQILKNINCHKVLLLRNTVGEDFILDNANYFDIIYDFEHRFIGNEKIKAIEQFFPIGMDEIRNYSLSDKNNSQPICFFLGRDKGRLQIINELAERLTTLGCKLDFNVVKDKTSSTTSKYLIEKQISYEENIRRTLNANIIVDITKENQSGWTLRILEALFFNKKLITNNINVFGSEIYSESRFFIIGHDDWDKLEYFINSSVKPMDYDSLYKFSPDKMMSTIVSDFIDK", "yes (1)"],
  ["MSETAKKVIVGMSGGVDSSVSAWLLQQQGYQVEGLFMKNWEEDDGEEYCTAAADLADAQAVCDKLGIELHTVNFAAEYWDNVFELFLAEYKAGRTPNPDILCNKEIKFKAFLEFAAEDLGADYIATGHYVRRADVDGKSRLLRGLDSNKDQSYFLYTLSHEQIAQSLFPVGELEKPQVRKIAEDLGLVTAKKKDSTGICFIGERKFREFLGRYLPAQPGKIITVDGDEIGEHQGLMYHTLGQRKGLGIGGTKEGTEEPWYVVDKDVENNILVVAQGHEHPRLMSVGLIAQQLHWVDREPFTGTMRCTVKTRYRQTDIPCTVKALDDDRIEVIFDEPVAAVTPGQSAVFYNGEVCLGGGIIEQRLPLPV", "yes (1)"],
  ["MKTAYIAKQRQISFVKSHFSRQLEERLGLIEVQAPILSRVGDGTQDNLSGCEKAVQVKVKALPDAQFEVVHSLAKWKRQTLGQHDFSAGEGLYTHMKALRPDEDRLSPLHSVYVDQWDWERVMGDGERQFSTLKSTVEAIWAGIKATEAAVSEEFGLAPFLPDQIHFVHSQELLSRYPDLDAKGRERAIAKDLGAVFLVGIGGKLSDGHRHDVRAPDYDDWSTPSELGHAGLNGDILVWNPVLEDAFELSSMGIRVDADTLKHQLALTGDEDRLELEWHQALLRGEMPQTIGGGIGQSRLTMLLLQLPHIGQVQCGVWPAAVRESVPSLL", "yes (1)"],
  ["MMKTVKHLLCCAIAASALISTGVHAASWKDALSSAASELGNQNSTTQEGGWSLASLTNLLSSGNQALSADNMNNAAGILQYCAKQKLASVTDAENIKNQVLEKLGLNSEEQKEDTNYLDGIQGLLKTKDGQQLNLDNIGTTPLAEKVKTKACDLVLKQGLNFIS", "no (0)"],
  ["MKLNIRAQTAQNQHNNSPIVLVHGLFGSLDNLGVLARDLVNDHNIIQVDMRNHGLSPRDPVMNYPAMAQDLVDTLDAQQIDKATFIGHSMGGKAVMALTALASDRIDKLVAIDIAPVDYHVRRHDEIFAAINAVSESDAQTRQQAAAIMRQHLNEEGVIQFLLKSFVDGEWRFNVPVLWDQYPHIVGWEKIPAWDHPALFIPGGNSPYVSEQYRDDLLAQFPQARAHVIAGAGHWVHAEKPDAVLRAIRRYLND", "yes (1)"],
  ["MNISDVAKITGLTSKAIRFYEEKGLVTPPMRSENGYRTYTQQHLNELTLLRQARQVGFNLEESGELVNLFNDPQRHSADVKRRTLEKVAEIERHIEELQSMRDQLLALANACPGDDSADCPIIENLSGCCHHRAG [P0A9G4]", "no (0)"],
  ["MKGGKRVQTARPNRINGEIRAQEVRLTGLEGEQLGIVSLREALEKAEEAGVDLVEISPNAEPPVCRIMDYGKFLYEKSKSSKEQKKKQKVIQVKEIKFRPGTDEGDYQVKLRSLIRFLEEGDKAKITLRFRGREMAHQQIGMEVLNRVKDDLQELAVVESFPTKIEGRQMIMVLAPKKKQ [P0A707]", "yes (1)"],
  ["MVLWQSDLRVSWRAQWLSLLIHGLVAAVILLMPWPLSYTPLWMVLLSLVVFDCVRSQRRINARQGEIRLLMDGRLRWQGQEWSIVKAPWMIKSGMMLRLRSDGGKRQHLWLAADSMDEAEWRDLRRILLQQETQR", "yes (1)"],
  ["MMNSTNKLSVIIPLYNAGDDFRTCMESLITQTWTALEIIIINDGSTDNSVEIAKYYAENYPHVRLLHQANAGASVARNRGIEVATGKYVAFVDADDEVYPTMYETLMTMALEDDLDVAQCNADWCFRETGETWQSIPTDRLRSTGVLTGPDWLRMGLSSRRWTHVVWMGVYRRDVIVKNNIKFIAGLHHQDIVWTTEFMFNALRARYTEQSLYKYYLHNTSVSRLHRQGNKNLNYQRHYIKITRLLEKLNRNYADKIMIYPEFHQQITYEALRVCHAVRKEPDILTRQRMIAEIFTSGMYKRLITNVRSVKVGYQALLWSFRLWQWRDKTRSHHRITRSAFNLR", "no (0)"],
  ["MIINNVKLVLENEVVSGSLEVQNGEIRAFAESQSRLPEAMDGEGGWLLPGLIELHTDNLDKFFTPRPKVDWPAHSAMSSHDALMVASGITTVLDAVAIGDVRDGGDRLENLEKMINAIEETQKRGVNRAEHRLHLRCELPHHTTLPLFEKLVQREPVTLVSLMDHSPGQRQFANREKYREYYQGKYSLTDAQMQQYEEEQLALAARWSQPNRESIAALCRARKIALASHDDATHAHVAESHQLGSVIAEFPTTFEAAEASRKHGMNVLMGAPNIVRGGSHSGNVAASELAQLGLLDILSSDYYPASLLDAAFRVADDQSNRFTLPQAVKLVTKNPAQALNLQDRGVIGEGKRADLVLAHRKDNHIHIDHVWRQGKRVF", "no (0)"],
  ["MKLTTHHLRTGAALLLAGILLAGCDQSSSDAKHIKVGVINGAEQDVAEVAKKVAKEKYGLDVELVGFSGSLLPNDATNHGELDANVFQHRPFLEQDNQAHGYKLVAVGNTFVFPMAGYSKKIKTVAQIKEGATVAIPNDPTNLGRALLLLQKEKLITLKEGKGLLPTALDITDNPRHLQIMELEGAQLPRVLDDPKVDVAIISTTYIQQTGLSPVHDSVFIEDKNSPYVNILVAREDNKNAENVKEFLQSYQSPEVAKAAETIFNGGAVPGW", "yes (1)"]
]}
